Reported Bmax by item:
# TARGET ENTITY: T1, human LILRB2 expressed on cells (293T-LILRB2, CHO-K1-LILRB2) (human, UniProt Q8N423 22-597)
# T1 construct: whole, on cells; the cell line is named under assay; also called HEK293T-LILRB2
# T1 sequence (Q8N423 22-597): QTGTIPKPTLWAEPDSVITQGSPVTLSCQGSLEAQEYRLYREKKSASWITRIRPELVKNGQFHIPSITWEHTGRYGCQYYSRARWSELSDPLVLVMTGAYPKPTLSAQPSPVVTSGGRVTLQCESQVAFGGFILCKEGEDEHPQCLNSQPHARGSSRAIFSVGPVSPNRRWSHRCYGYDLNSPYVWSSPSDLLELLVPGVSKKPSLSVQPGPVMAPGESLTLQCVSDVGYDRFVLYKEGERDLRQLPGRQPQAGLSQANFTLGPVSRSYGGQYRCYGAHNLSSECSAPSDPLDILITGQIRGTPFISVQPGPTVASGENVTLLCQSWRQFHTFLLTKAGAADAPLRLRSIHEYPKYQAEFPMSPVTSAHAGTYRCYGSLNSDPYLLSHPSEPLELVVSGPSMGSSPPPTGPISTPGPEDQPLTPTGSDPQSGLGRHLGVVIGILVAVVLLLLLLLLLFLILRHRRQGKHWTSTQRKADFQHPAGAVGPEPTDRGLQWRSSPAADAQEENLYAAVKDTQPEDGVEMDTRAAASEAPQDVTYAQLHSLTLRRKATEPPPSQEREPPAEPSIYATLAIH
# METHOD SUMMARY: flow cytometry on 293T-LILRB2 cells, serial dilution, APC anti-human IgG; fit table under the graph
Unit RFU implied. Number only.

| BINDER | READOUT | UNITS | REPORTED RESULT |
| --- | --- | --- | --- |
| chimeric 11B12 (antibody, V domains shown) VH: DVQLQESGPGLVKPSQSLSLTCSVTGYSITSGYYWNWIRQFPGNKLEWMGYISYDGNNNYNPSLKNRISITRDTSKNQFFLKLNSVTTEDTATYYCAREESTMITTAWFAYWGQGTLVTVSA VL: DIQMTQSPASLSVSVGETVTITCRASENIYSNLAWYQQKQGKSPQLLVYGATNLADGVPSRFSGSGSGTQYSLKINSLQSEDFGSYFCQHFWDTPYTFGGGTKLEIK | Bmax | RFU | 582000 |
| Antibody h#2E2 (antibody, V domains shown, Humanized variant of 11B12) VH: EVQLVESGGGLVQPGGSLRLSCAVSGYSITSGYYWNWIRQAPGKGLEWVAYISYDGNNNYNPSLKNRFTISRDTSKNTVYLQMNSLRAEDTAVYYCAREESTMITTAWFAYWGQGTLVTVSS VL: DIQMTQSPSSLSASVGDRVTITCRASENIYSNLAWYQQKPGKAPKLLIYGATNLASGVPSRFSGSGSGTDYTLTISSLQPEDFATYYCQHFWDTPYTFGQGTKVEIK | Bmax | RFU | 615000 |
| Antibody h#2B1 (antibody, V domains shown, Humanized variant of 11B12) VH: EVQLVESGGGLVQPGGSLRLSCAVSGYSITSGYYWNWIRQAPGKGLEWVAYISYDGNNNYNPSLKNRFTISRDASKNTVYLQMNSLRAEDTAVYYCAREESTMITTAWFAYWGQGTLVTVSS VL: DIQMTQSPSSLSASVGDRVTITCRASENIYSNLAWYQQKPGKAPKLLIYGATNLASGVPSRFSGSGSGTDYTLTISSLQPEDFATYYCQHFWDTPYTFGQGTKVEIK | Bmax | RFU | 606000 |

Please examine the following record next.
Query block: Param item = Antibody h#2E1 (antibody, V domains shown, Humanized variant of 11B12; detected with anti-human IgG) VH: EVQLVESGGGLVQPGGSLRLSCAVSGYSITSGYYWNWIRQAPGKGLEWVAYISYDGNNNYNPSLKNRFTISRDTSKNTFYLQMNSLRAEDTAVYYCAREESTMITTAWFAYWGQGTLVTVSS VL: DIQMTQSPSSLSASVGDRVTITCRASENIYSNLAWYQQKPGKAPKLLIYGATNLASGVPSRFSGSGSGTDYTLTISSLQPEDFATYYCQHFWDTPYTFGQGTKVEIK ; retrieve measured Bmax.
Result block: 556000
